# credit: ChEMBL document CHEMBL1144197

assay name: Oral bioavailability in rat at 10 mg/kg
Assay type: ADME, organism-based
condition details: in vivo
Each entry below carries its reported bioavailability.
Write it as a number; the unit % goes unstated.

Here is how some molecules turned out for bioavailability.
{"columns": ["molecule", "readout unit", "bioavailability"],
 "data": [
  ["CN(C)C(=O)CN1CC(c2nc(C(=O)NCc3ccc(F)cc3)c([O-])c3ncccc23)CC1=O.[Na+] (stereo not drawn)", "%", 5],
  ["CN1CC(c2nc(C(=O)NCc3ccc(F)cc3S(C)(=O)=O)c(O)c3ncccc23)CC1=O (stereo not drawn)", "%", 4]
]}

Could you tell me which bioavailability is on file for CN1CC(c2nc(C(=O)NCc3ccc(F)cc3)c([O-])c3ncccc23)CC1=O.[Na+] (stereo not drawn) ?
65
